system: OVCAR-3; test: NCI 60 antitumor screening (single dose); type: cell-based; settings: Homo sapiens; OVCAR-3 (ovarian cancer), single dose 10 μM; read-out: Growth inhibition percentage (GI %)

- structure.string: "O=C1Nc2ccc(Cl)cc2/C1=N\\Nc1nc(N/N=C2/C(=O)Nc3ccc(Cl)cc32)nc(N2CCOCC2)n1"
  target.entity: "OVCAR-3"
  inhibition at 10 µM / %: 47.3
- structure.string: "CN(C)c1ccc(/C=N/Nc2nc(N/N=C/c3ccc(N(C)C)cc3)nc(N3CCOCC3)n2)cc1"
  target.entity: "OVCAR-3"
  inhibition at 10 µM / %: -9.22
- structure.string: "C(=N\\Nc1nc(N/N=C/c2ccc3c(c2)OCO3)nc(N2CCCCC2)n1)/c1ccc2c(c1)OCO2"
  target.entity: "OVCAR-3"
  inhibition at 10 µM / %: -5.21
- structure.string: "O=[N+]([O-])c1cc(/C=N/Nc2nc(N/N=C/c3ccc(Cl)c([N+](=O)[O-])c3)nc(N3CCCCC3)n2)ccc1Cl"
  target.entity: "OVCAR-3"
  inhibition at 10 µM / %: 107
- structure.string: "Brc1ccccc1/C=N/Nc1nc(N/N=C/c2ccccc2Br)nc(N2CCCCC2)n1"
  target.entity: "OVCAR-3"
  inhibition at 10 µM / %: -6.1
- structure.string: "O=[N+]([O-])c1cccc(/C=N/Nc2nc(N/N=C/c3cccc([N+](=O)[O-])c3)nc(N3CCCCC3)n2)c1"
  target.entity: "OVCAR-3"
  inhibition at 10 µM / %: 44.4
- structure.string: "CN(C)c1ccc(/C=N/Nc2nc(N/N=C/c3ccc(N(C)C)cc3)nc(N3CCCCC3)n2)cc1"
  target.entity: "OVCAR-3"
  inhibition at 10 µM / %: 34.4
- structure.string: "Oc1ccccc1/C=N/Nc1nc(N/N=C/c2ccccc2O)nc(N2CCCCC2)n1"
  target.entity: "OVCAR-3"
  inhibition at 10 µM / %: 80.8
- structure.string: "Brc1ccccc1/C=N/Nc1nc(N/N=C/c2ccccc2Br)nc(N2CCOCC2)n1"
  target.entity: "OVCAR-3"
  inhibition at 10 µM / %: 14.8
- structure.string: "Fc1cccc(Cl)c1/C=N/Nc1nc(N/N=C/c2c(F)cccc2Cl)nc(N2CCCCC2)n1"
  target.entity: "OVCAR-3"
  inhibition at 10 µM / %: 77.3
- structure.string: "Brc1cccc(/C=N/Nc2nc(N/N=C/c3cccc(Br)c3)nc(N3CCOCC3)n2)c1"
  target.entity: "OVCAR-3"
  inhibition at 10 µM / %: 57.5
- structure.string: "C(=N\\Nc1nc(N/N=C/c2ccc3c(c2)OCO3)nc(N2CCOCC2)n1)/c1ccc2c(c1)OCO2"
  target.entity: "OVCAR-3"
  inhibition at 10 µM / %: 6.73
- structure.string: "Fc1cccc(/C=N/Nc2nc(N/N=C/c3cccc(F)c3)nc(N3CCOCC3)n2)c1"
  target.entity: "OVCAR-3"
  inhibition at 10 µM / %: 19.3
- structure.string: "Brc1cccc(/C=N/Nc2nc(N/N=C/c3cccc(Br)c3)nc(N3CCCCC3)n2)c1"
  target.entity: "OVCAR-3"
  inhibition at 10 µM / %: 0.95

* * *

system: HS 578T; assay: NCI 60 antitumor screening (single dose); type: cell-based; details: Homo sapiens; HS 578T (breast cancer), single dose 10 μM; read-out: Growth inhibition percentage (GI %)
measured.metric: inhibition at 10 µM

- structure.string: "O=C(NNc1nc(NNC(=O)c2ccccc2)nc(N2CCOCC2)n1)c1ccccc1"
  measured.metric: "inhibition at 10 µM"
  observed.measurement: "-6.14%"
- structure.string: "Clc1cccc(/C=N/Nc2nc(N/N=C/c3cccc(Cl)c3)nc(N3CCCCC3)n2)c1"
  measured.metric: "inhibition at 10 µM"
  observed.measurement: "-4.65%"
- structure.string: "C(=N\\Nc1nc(N/N=C/c2ccc3c(c2)OCO3)nc(N2CCCCC2)n1)/c1ccc2c(c1)OCO2"
  measured.metric: "inhibition at 10 µM"
  observed.measurement: "-4.09%"
- structure.string: "CN(C)c1ccc(/C=N/Nc2nc(N/N=C/c3ccc(N(C)C)cc3)nc(N3CCOCC3)n2)cc1"
  measured.metric: "inhibition at 10 µM"
  observed.measurement: "2.43%"

* * *

test system: RPMI-8226; assay: NCI 60 antitumor screening (single dose / five doses); type: cell-based; details: Homo sapiens, RPMI-8226, read-out: Growth inhibition percentage (GI %)

- molecule: "C/C(=N\\Nc1nc(N/N=C(\\C)c2ccc([N+](=O)[O-])cc2)nc(N2CCOCC2)n1)c1ccc([N+](=O)[O-])cc1 [compound 8a]"
  inhibition at 10 µM, %: 35.3
- molecule: "O=[N+]([O-])c1cccc(/C=N/Nc2nc(N/N=C/c3cccc([N+](=O)[O-])c3)nc(N3CCOCC3)n2)c1 [compound 6f]"
  inhibition at 10 µM, %: 66.4
- molecule: "O=[N+]([O-])c1cc(/C=N/Nc2nc(N/N=C/c3ccc(Cl)c([N+](=O)[O-])c3)nc(N3CCOCC3)n2)ccc1Cl [compound 6i]"
  inhibition at 10 µM, %: 42.8
- molecule: "O=[N+]([O-])c1cccc(/C=N/Nc2nc(N/N=C/c3cccc([N+](=O)[O-])c3)nc(N3CCCCC3)n2)c1 [compound 7f]"
  inhibition at 10 µM, %: 69.3
- molecule: "O=[N+]([O-])c1cc(/C=N/Nc2nc(N/N=C/c3ccc(Cl)c([N+](=O)[O-])c3)nc(N3CCCCC3)n2)ccc1Cl [compound 7i]"
  inhibition at 10 µM, %: 81.7

* * *

Recorded inhibition at 10 µM by entry
tested on: U251; experiment: NCI 60 antitumor screening (single dose); type: cell-based; settings: Homo sapiens, U-251; U251 (CNS cancer), single dose 10 μM; read-out: Growth inhibition percentage (GI %)

- compound: "Fc1cccc(Cl)c1/C=N/Nc1nc(N/N=C/c2c(F)cccc2Cl)nc(N2CCOCC2)n1 [compound 6l]"
  inhibition at 10 µM: "11.8%"
- compound: "Brc1cccc(/C=N/Nc2nc(N/N=C/c3cccc(Br)c3)nc(N3CCCCC3)n2)c1 [compound 7c]"
  inhibition at 10 µM: "3.1%"
- compound: "Fc1cccc(/C=N/Nc2nc(N/N=C/c3cccc(F)c3)nc(N3CCCCC3)n2)c1 [compound 7e]"
  inhibition at 10 µM: "5.46%"
- compound: "Oc1ccc(/C=N/Nc2nc(N/N=C/c3ccc(O)c(O)c3)nc(N3CCOCC3)n2)cc1O [compound 6j]"
  inhibition at 10 µM: "-3.1%"
- compound: "Brc1ccccc1/C=N/Nc1nc(N/N=C/c2ccccc2Br)nc(N2CCOCC2)n1 [compound 6b]"
  inhibition at 10 µM: "3.53%"
- compound: "O=[N+]([O-])c1cccc(/C=N/Nc2nc(N/N=C/c3cccc([N+](=O)[O-])c3)nc(N3CCCCC3)n2)c1 [compound 7f]"
  inhibition at 10 µM: "28.6%"
- compound: "Brc1ccccc1/C=N/Nc1nc(N/N=C/c2ccccc2Br)nc(N2CCCCC2)n1 [compound 7b]"
  inhibition at 10 µM: "-2.15%"
- compound: "Clc1cccc(/C=N/Nc2nc(N/N=C/c3cccc(Cl)c3Cl)nc(N3CCCCC3)n2)c1Cl [compound 7h]"
  inhibition at 10 µM: "47.1%"
- compound: "C(=N\\Nc1nc(N/N=C/c2ccc3c(c2)OCO3)nc(N2CCOCC2)n1)/c1ccc2c(c1)OCO2 [compound 6k]"
  inhibition at 10 µM: "24.1%"
- compound: "Oc1ccccc1/C=N/Nc1nc(N/N=C/c2ccccc2O)nc(N2CCOCC2)n1 [compound 6a]"
  inhibition at 10 µM: "78%"
- compound: "COC(=O)C(Cc1ccccc1)Nc1nc(NC(Cc2ccccc2)C(=O)OC)nc(N2CCOCC2)n1 (stereo not shown) [compound 8c]"
  inhibition at 10 µM: "-5.23%"
- compound: "Fc1cccc(Cl)c1/C=N/Nc1nc(N/N=C/c2c(F)cccc2Cl)nc(N2CCCCC2)n1 [compound 7l]"
  inhibition at 10 µM: "73.2%"
- compound: "O=[N+]([O-])c1cccc(/C=N/Nc2nc(N/N=C/c3cccc([N+](=O)[O-])c3)nc(N3CCOCC3)n2)c1 [compound 6f]"
  inhibition at 10 µM: "17.2%"
- compound: "Oc1ccccc1/C=N/Nc1nc(N/N=C/c2ccccc2O)nc(N2CCCCC2)n1 [compound 7a]"
  inhibition at 10 µM: "49.6%"
- compound: "Oc1ccc(/C=N/Nc2nc(N/N=C/c3ccc(O)c(O)c3)nc(N3CCCCC3)n2)cc1O [compound 7j]"
  inhibition at 10 µM: "9.07%"
- compound: "O=[N+]([O-])c1cc(/C=N/Nc2nc(N/N=C/c3ccc(Cl)c([N+](=O)[O-])c3)nc(N3CCOCC3)n2)ccc1Cl [compound 6i]"
  inhibition at 10 µM: "-5.95%"
